Cited source: ChEMBL document CHEMBL5303300

Entries and their Population Membrane Permeable-Phenotype (%)
Tested on: Fibroblast
ASSAY_DETAILS: Multiplex assay against human fibroblast
Assay type: toxicity, cell-based
TEST_PARAMETERS: 24 h, 1 µM, compound concentration 1 uM, number of replicates 2
Report the figure in % without appending any unit label.

Recorded Population Membrane Permeable-Phenotype (%) for C=CC(=O)Nc1ccc2[nH]c(=O)n(C3CCN(Cc4ccc(-c5ccc6c(c5)NC(=O)CO6)cc4)CC3)c2c1 with Fibroblast, please?
3

Give Population Membrane Permeable-Phenotype (%) (Fibroblast) of the following molecule: Cc1c(C(=O)Nc2ccc(N3C[C@@H](C)O[C@@H](C)C3)nc2)cccc1-c1ccc(OC(F)(F)F)cc1
3

Lookup: Population Membrane Permeable-Phenotype (%) / Fibroblast / Br.Cc1cccc(C2CN(C)CCc3c2cc(O)c(O)c3Cl)c1 (configuration not stated)
1

Lookup: Population Membrane Permeable-Phenotype (%) / Fibroblast / Cc1ccc2c(c1CCC(=O)O)CC[C@@H](NS(=O)(=O)c1ccc(Cl)cc1)C2
1

Observed Population Membrane Permeable-Phenotype (%) on Fibroblast for CCCCOc1c(C(=O)c2c(F)cc(C)cc2F)c[nH]c2nncc1-2 , please.
7

Request - read-out Population Membrane Permeable-Phenotype (%) | tested on Fibroblast | molecule CCCN(CCc1cccs1)[C@H]1CCc2c(O)cccc2C1
4

Reported Population Membrane Permeable-Phenotype (%) for Fibroblast, given Cn1cc(-n2cnc3c(NCc4nc5cc(Cl)c(Cl)cc5[nH]4)nc(N4CCOCC4)nc32)cn1 ?
12
